# Tested on: human GPR40 (Homo sapiens)
# Sequence (O14842 whole entry): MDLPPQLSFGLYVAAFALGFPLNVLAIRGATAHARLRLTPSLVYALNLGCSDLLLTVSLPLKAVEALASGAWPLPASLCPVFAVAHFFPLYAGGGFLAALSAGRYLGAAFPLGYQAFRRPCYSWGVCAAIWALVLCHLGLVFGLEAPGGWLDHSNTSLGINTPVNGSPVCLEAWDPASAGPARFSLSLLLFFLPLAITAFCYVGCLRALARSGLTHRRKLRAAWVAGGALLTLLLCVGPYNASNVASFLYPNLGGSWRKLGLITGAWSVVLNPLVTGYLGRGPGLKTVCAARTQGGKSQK
Counter-ions that a name gives are not always drawn.
// boundary case: EC50 equal to 0.05 µM maps to criterion not met; strictly smaller maps to criterion met

Query: For this compound, is EC50 lower than 0.05 µM? COc1cc(N2CCC(Oc3cc(F)c(N4C[C@H](OC)C[C@@H]4CC(=O)O)c(F)c3)C(C)C2)c(Cl)cn1 (stereo partly drawn) [Example 144, TFA]
Reply: criterion not met

Query: For this compound, is EC50 lower than 0.05 µM? COc1cc(N2CCC(Oc3ccc(N4C[C@H](OC)C[C@@H]4CC(=O)O)cc3)CC2)c(F)cn1
Reply: criterion not met

Query: For this compound, is EC50 lower than 0.05 µM? COc1ccc(C2CC2)c(N2CCC(Oc3ccc(N4C[C@H](OC)C[C@@H]4CC(=O)O)cc3)CC2)c1 [Example 59, TFA]
Reply: criterion met

Query: For this compound, is EC50 lower than 0.05 µM? COc1ccc(CCC(C)(C)C)c(N2CCC(Oc3ccc(N4C[C@H](OC)C[C@@H]4CC(=O)O)cc3)CC2)c1
Reply: criterion met

Query: For this compound, is EC50 lower than 0.05 µM? CCOc1ccc(F)c(N2CCC(Oc3ccc(N4C[C@H](Cc5cccc(OC)c5)C[C@@H]4CC(=O)O)cc3)CC2)c1 [Example 124, TFA]
Reply: criterion met

Query: For this compound, is EC50 lower than 0.05 µM? CCOc1ccc(F)c(N2CCC(Oc3ccc(N4CC(C)(OC)C[C@@H]4CC(=O)O)cc3)C(C)C2)c1 (stereo partly drawn) [Example 47, HCl]
Reply: criterion met
